Data origin: patent US20240101531A1

biological target: human KV7.2/KV7.3 (Homo sapiens (Human), UniProt O43525+O43526); test: Potassium flux assay (IPG-2 AM dye); details: TREX HEK 293 or HEK 293 cells expressing human KV7.2/KV7.3; arithmetic mean values
Listing: EC50 of selected compounds

>  <compound>
N=[S@]1(=O)CCC[C@@H](COc2ccc3c(Nc4cnc(Cl)nc4)nccc3c2)C1 (relative stereo)

>  <EC50>
1000 to 10000 nM

$$$$
>  <compound>
FC(F)COc1ccc2c(Nc3ccc(Cl)nc3)nccc2c1

>  <EC50>
1000 to 10000 nM

$$$$
>  <compound>
Cc1ncc(Nc2nccc3cc(OCC4CCOC4)ccc23)cn1 (stereo not drawn)

>  <EC50>
1000 to 10000 nM

$$$$

// recorded EC50 for Cc1csc2c(Nc3ccc(Cl)nc3)nccc12 : 1000 to 10000 nM

Recorded result, Clc1ccc(Nc2nccc3cc(Oc4cccnc4)ccc23)cn1 , EC50: 1000 to 10000 nM

Field EC50 (entry N#CC12CC(COc3ccc4c(Nc5cnc(Cl)nc5)nccc4c3)(C1)C2 ) reads < 1000 nM

Form: compound = Clc1ccc(Nc2nccc3cc(OCc4ccno4)ccc23)cn1 ; EC50 = < 1000 nM

Per the record, COCCN1CCC(Oc2ccc3c(Nc4ccc(Cl)nc4)nccc3c2)CC1 has EC50 of 10000 to 30000 nM

In plain terms, Cc1ncc(Nc2nccc3cc(OCc4ccn(C)n4)ccc23)cn1 has a documented EC50 of 1000 to 10000 nM

Query N#CC1(COc2ccc3c(Nc4ccc(Cl)nc4)nccc3c2)CCOC1 (racemic) [Example 124] yields EC50 of < 1000 nM

GET /value?item= Clc1ccc(Nc2nccc3cc(OC4CCOC4)ccc23)cn1 (stereo not drawn) &field=EC50 returns < 1000 nM

Short answer for FC(F)Cn1cc(COc2ccc3c(Nc4ccc(Cl)nc4)nccc3c2)cn1 : EC50 was < 1000 nM

Value of measured EC50 for the entry N#CC1(COc2ccc3c(Nc4ccc(Cl)nc4)nccc3c2)CCOC1 (stereo in doubt) [Example 126] : < 1000 nM

For this compound ( CN(Cc1ccc2c(Nc3ccc(Cl)nc3)nccc2c1)c1cn[nH]c1 ), measured EC50 is < 1000 nM

Entry FC1(F)COCC1Oc1ccc2c(Nc3ccc(Cl)nc3)nccc2c1 (stereo not drawn) [Example 86, 2,2,2-trifluoroacetate] , EC50 reported as 1000 to 10000 nM

Recorded EC50 (compound C[C@H](Oc1ccc2c(Nc3ccc(Cl)nc3)nccc2c1)c1ccncc1 ): < 1000 nM

* * *

target: human KV7.2/KV7.3 (Homo sapiens (Human), UniProt O43525+O43526); assay: Potassium flux assay (IPG-2 AM dye); details: TREX HEK 293 or HEK 293 cells expressing human KV7.2/KV7.3; arithmetic mean values
pEC50: −log10 of the molar value. Where a name gives a salt, the structure may show the parent alone.
Recorded pEC50, one value per entry.

>  <compound>
Clc1ccc(Nc2nccc3sccc23)cn1 [Example 11, formate]

>  <pEC50>
5.00 to 6.00

$$$$

Now for a further compound.
Documented pEC50 of Cc1ncc(Nc2nccc3cc(OCC4(F)CC4)ccc23)cc1Cl : ≤ 4.52

* * *

Target: human KV7.2/KV7.3 (Homo sapiens (Human), UniProt O43525+O43526)
Test: Potassium flux assay (IPG-2 AM dye)
Settings: TREX HEK 293 or HEK 293 cells expressing human KV7.2/KV7.3; arithmetic mean values
Source text: This potassium flux assay employs the cell-permeable, potassium-sensitive dye, IPG-2 AM, to quantify potassium ion flux through potassium channels. In general, TREX HEK 293 or HEK 293 cells were stably transfected with either an inducible or non-inducible expression vector containing the full-length cDNA coding for the desired human KV7.2/KV7.3 or in combination with another full-length cDNA for a second desired human KV7 potassium channel. […]
pEC50: −log10 of the molar value. Counter-ions that a name gives are not always drawn.
metric: pEC50

>  <molecule>
COC1CN(CCOc2ccc3c(Nc4ccc(Cl)nc4)nccc3c2)C1

>  <measured on>
human KV7.2/KV7.3 (Homo sapiens (Human), UniProt O43525+O43526)

>  <pEC50>
4.52 to 5.00

$$$$

For Clc1ccc(Nc2nccc3cc(OCc4ncccn4)ccc23)cn1 the molecule record lists pEC50 as 5.00 to 6.00

So, Clc1ccc(Nc2nccc3cc(OCc4ccncc4)ccc23)cn1 ? Its pEC50 was > 6.00

Cc1ncc(Nc2nccc3cc(OCc4cnn(C)c4)ccc23)cn1 yielded pEC50 of > 6.00

Record Fc1ccc2c(Nc3ccc(Cl)nc3)nccc2c1 [Example 18, formate] . Reported pEC50: 5.00 to 6.00

Sure, the documented pEC50 for OCc1ncc(Nc2nccc3cc(OCC4(F)CC4)ccc23)cn1 is 5.00 to 6.00

Lab note: measured pEC50 of COC(=O)C1COCCN1CCOc1ccc2c(Nc3ccc(Cl)nc3)nccc2c1 (stereo not drawn) was 5.00 to 6.00

According to the records, this molecule FC(F)(F)CN1CC(Oc2ccc3c(Nc4ccc(Cl)nc4)nccc3c2)C1 displays pEC50 of 5.00 to 6.00

The molecule listed as CC(Oc1ccc2c(Nc3ccc(Cl)nc3)nccc2c1)C1CC1 (stereo not drawn) shows pEC50 equal to 5.00 to 6.00

* * *

biological target: human KV7.2/KV7.3 (Homo sapiens (Human), UniProt O43525+O43526); assay: Potassium flux assay (IPG-2 AM dye); details: TREX HEK 293 or HEK 293 cells expressing human KV7.2/KV7.3; arithmetic mean values
pEC50: −log10 of the molar value.
metric: pEC50

Sample answers from the record:
>  <compound>
Cn1cnc(COc2ccc3c(Nc4ccc(Cl)nc4)nccc3c2)n1 [Example 307]

>  <pEC50>
5.00 to 6.00

$$$$
>  <compound>
FC(F)C1(COc2ccc3c(Nc4ccc(Cl)nc4)nccc3c2)CC1 [Example 326]

>  <pEC50>
> 6.00

$$$$
>  <compound>
FC1(COc2ccc3c(Nc4ccc(Cl)nc4)nccc3c2)CCOC1 (stereo not drawn) [Example 363]

>  <pEC50>
> 6.00

$$$$

Entry FC1(COc2ccc3c(Nc4ccc(Cl)nc4)nccc3c2)CCOC1 (stereo in doubt) [Example 365] , pEC50 reported as > 6.00

Please fill in: pEC50 reported for Clc1ncc(Nc2nccc3cc(OCc4ccncc4)ccc23)cn1 [Example 202] = > 6.00

Quick note, pEC50 for CC1(COc2ccc3c(Nc4ccc(Cl)nc4)nccc3c2)CS(=O)(=O)C1 [Example 293] landed at > 6.00

* * *

Listed below: pEC50 values for each entry.
target: human KV7.2/KV7.3 (Homo sapiens (Human), UniProt O43525+O43526); assay: Potassium flux assay (IPG-2 AM dye); conditions: TREX HEK 293 or HEK 293 cells expressing human KV7.2/KV7.3; arithmetic mean values
pEC50: −log10 of the molar value.

Consider the following illustrative entries.
>  <molecule>
C[C@@]1(O)CCC[C@H](Oc2ccc3c(Nc4ccc(Cl)nc4)nccc3c2)C1 [Example 149]

>  <pEC50>
> 6.00

$$$$
>  <molecule>
Clc1ncc(Nc2nccc3cc(OC[C@@H]4COCCO4)ccc23)cn1 [Example 383]

>  <pEC50>
> 6.00

$$$$
>  <molecule>
Clc1ccc(Nc2nccc3cc[nH]c23)cn1 [Example 14]

>  <pEC50>
5.00 to 6.00

$$$$
>  <molecule>
CC(=O)N1CCC[C@H](Oc2ccc3c(Nc4ccc(Cl)nc4)nccc3c2)C1 [Example 122]

>  <pEC50>
5.00 to 6.00

$$$$
>  <molecule>
O[C@@H]1CCC[C@H](Oc2ccc3c(Nc4ccc(Cl)nc4)nccc3c2)C1 (racemic) [Example 95]

>  <pEC50>
> 6.00

$$$$
>  <molecule>
N#CC1(COc2ccc3c(Nc4cnc(Cl)nc4)nccc3c2)CC12CC2 (stereo not drawn) [Example 349]

>  <pEC50>
> 6.00

$$$$
>  <molecule>
CS(=O)(=Nc1ccc2c(Nc3ccc(Cl)nc3)nccc2c1)C1COC1 (stereo in doubt) [Example 277]

>  <pEC50>
5.00 to 6.00

$$$$
>  <molecule>
FC(F)CN1CCC(Oc2ccc3c(Nc4ccc(Cl)nc4)nccc3c2)CC1 [Example 315]

>  <pEC50>
5.00 to 6.00

$$$$
>  <molecule>
CC1(COc2ccc3c(Nc4cnc(Cl)c(N)c4)nccc3c2)COC1 [Example 163]

>  <pEC50>
> 6.00

$$$$
>  <molecule>
CS(=O)(CC1CC1)=Nc1ccc2c(Nc3ccc(Cl)nc3)nccc2c1 (stereo not drawn) [Example 269]

>  <pEC50>
5.00 to 6.00

$$$$

The molecule identified as CC(C)Oc1ccc2c(Nc3ccc(Cl)nc3)nccc2c1 [Example 1] registered its pEC50 at 5.00 to 6.00

Summary for this molecule, Cn1cc(COc2cnc3c(Nc4ccc(Cl)nc4)nccc3c2)cn1 [Example 252] : pEC50 is > 6.00

In plain terms, Cn1cncc1COc1ccc2c(Nc3ccc(Cl)nc3)nccc2c1 [Example 65] has a documented pEC50 of > 6.00
